- System: HCT-15 colon
- assay method text: NCI-60 one-dose screen, 48 h
- condition context: 10 µM unless noted
About 83,000 compounds went through this panel and 20% of them were active in at least one assay; those are over-represented in the sample as a whole. Activity calls are given as the source filed them. Rule for the calls: active = growth percent below 10; inactive = the rest.
Pick one: active, inactive

Exercise: Lab log entry: CCN(CC)CCCCNc1c2ccc(Cl)cc2nc2ccc(OC)cc12 — outcome as called in the assay?
Solution: active

Exercise: Would you mind doing Fc1ccc2[nH]cc(SSc3c[nH]c4ccc(F)cc34)c2c1 as well?
Solution: inactive

Exercise: Next entry: CC1=CC(=NN=c2cc(C)n([O-])c(C)c2)C=C(C)[N+]1=O
Solution: inactive

Exercise: Try the compound C=C(C)[C@@H]1CC[C@]2(C(N)=O)CC[C@]3(C)[C@H](CC[C@@H]4[C@@]5(C)C/C(=C/c6ccco6)C(=O)C(C)(C)[C@@H]5CC[C@]43C)[C@@H]12
Solution: inactive

Exercise: What do you get for O=C(CN1C(=O)/C(=C/c2ccc(Cl)cc2)SC1=S)NCCCN1CCOCC1 ?
Solution: inactive

Exercise: // query: O=c1oc2c(C(F)(F)F)cccc2cc1-c1csc(Nc2ccc(OCCF)cc2)n1
Solution: inactive

Exercise: # iterate: O=c1c(F)cn(Cc2ccccc2CCl)c(=O)n1Cc1ccccc1CCl
Solution: active

Exercise: Now the compound COc1ccc(C(=O)COc2ccc(/C=C3\COc4ccc(OC)cc4C3=O)cc2)cc1
Solution: inactive

Exercise: Also check Clc1ccc2c(NCCCNc3nc(-n4ccnc4)nc4ccccc34)ccnc2c1
Solution: inactive

* * *

- Tested on: HOP-92 NSCLC
- assay method text: NCI-60 one-dose screen, 48 h
- condition context: 10 µM unless noted
The panel holds about 83,000 compounds, 20% with a hit somewhere; the sample as a whole holds those more often. The source made the active and inactive calls. Rule for the calls: active = growth percent below 10; inactive = the rest.
# valid calls are active, inactive; nothing else

O=C1c2cc3c(cc2-c2c1c1cc(F)c(F)cc1c(=O)n2CCCn1ccnc1)OCO3	active
O=C(/C=C/c1ccccc1)c1ccc(O)c(CN2CCN(c3cc4c(cc3F)c(=O)c(C(=O)O)cn4C3CC3)CC2)c1	active

Exercise: # outcome recorded in this test, key = CCOc1cc2ncc(C#N)c(Nc3ccc(F)c(Cl)c3)c2cc1NC(=O)CC1CCSS1 (stereo not given)
Solution: active

Exercise: Try this molecule too: Cc1nn(-c2cc(=O)[nH]c3ccc(Cl)cc23)c(N)c1C#N
Solution: inactive

Exercise: Do the same for COc1cc2nc(N3CCCC3)nc(Nc3ccccc3)c2cc1OC please
Solution: active

Exercise: Now give it for COc1cccc(C2=NN3C(C2)c2cc(Br)cc(OC)c2OC32CCN(Cc3ccccc3)CC2)c1 (stereo not given) too.
Solution: inactive

Exercise: Same read-out for COc1cc(C=Nc2oc(-c3ccccc3)c(-c3ccccc3)c2C#N)cc(CN2CCCCC2)c1O ?
Solution: inactive

* * *

- Tested on: SNB-75 CNS
- assay method text: NCI-60 one-dose screen, 48 h (100 = growth as untreated, 0 = no growth, -100 = all killed)
- condition context: 10 µM unless noted
Compounds without any hit were thinned out: in the full panel of roughly 83,000, 20% have a hit.
reported endpoint: growth (%)
Numbers only, in %.

Reference set (2 entries):
CCOc1nc(-c2ccccc2)cc2c(O)c(C(=O)N/N=C/c3ccc(O)cc3O)[nH]c(=O)c12	59.6
CCNC(=O)Oc1ccc(/C(=C(\C)c2ccc(Cl)cc2)c2ccc(OCCN3CCCCC3)cc2)cc1	61.7

Now, please, on to the next compound.
Exercise: Which growth is listed for CC(C)n1c(/C=C/[C@@H](O)C[C@@H](O)CC(=O)O)c(-c2ccc(F)cc2)c2ccccc21 ?
Solution: 29.9
